Data origin, for the record: patent US11072598B2

molecular target: human somatostatin receptor subtype 2 (Homo sapiens, UniProt P30874); construct: expressed in transfected cells; test: cAMP functional assay for SSTR2 agonists; assay type: cell-based; details: inhibition of cAMP activities via human SST2 receptor (SSTR2), CHO-K1 cells; read-out: EC50
Sequence (P30874 whole entry): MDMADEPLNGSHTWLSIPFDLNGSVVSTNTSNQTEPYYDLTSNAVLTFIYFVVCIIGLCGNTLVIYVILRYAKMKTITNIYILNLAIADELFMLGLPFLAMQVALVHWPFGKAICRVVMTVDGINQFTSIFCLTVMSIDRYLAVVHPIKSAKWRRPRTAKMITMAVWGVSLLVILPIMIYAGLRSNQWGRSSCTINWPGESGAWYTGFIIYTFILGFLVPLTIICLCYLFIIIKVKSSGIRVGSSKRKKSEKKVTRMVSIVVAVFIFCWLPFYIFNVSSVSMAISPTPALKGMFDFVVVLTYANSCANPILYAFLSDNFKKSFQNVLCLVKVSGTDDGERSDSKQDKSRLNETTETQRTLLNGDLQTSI
pEC50: −log10 of the molar value.
Item-by-item account of pEC50
parameter-measured: pEC50

> print(dat)
                                given.smiles  parameter.measured        result
 1  CNC1CCN(c2c(-c3cc(C)cc(F)c3)cnc(N)c2-c2nc3ccc(C#N)cc3[nH]2)CC1               pEC50        > 8.00
 2  Cc1cc(F)cc(-c2cnnc(-c3nc4cc(C#N)ccc4[nH]3)c2N2CCC(N)CC2)c1               pEC50        > 8.00
 3  COc1cc(F)c2[nH]c(-c3c(N)ncc(-c4cc(C)cc(C)c4)c3N3CCC(N)CC3)nc2c1               pEC50        > 8.00
 4  COc1cc(Cl)cc2nc(-c3c(N)ncc(-c4cc(C)cc(F)c4)c3N3CCC(N)CC3)[nH]c12               pEC50        > 8.00
 5  CNc1ncc(-c2cc(C)cc(F)c2)c(N2CCC(N)CC2)c1-c1nc2cc(Cl)ccc2[nH]1               pEC50        > 8.00
 6  CONC(=O)c1ccc2cc(-c3nncc(-c4cc(C)cc(F)c4)c3N3CCC(N)CC3)[nH]c2c1               pEC50  7.00 to 8.00
 7  COc1ccc2[nH]c(-c3c(OC)ncc(-c4cc(C)cc(F)c4)c3N3CCC(N)CC3)nc2c1               pEC50        > 8.00
 8  Cc1cc(F)cc(-c2cnc(N)c(C=NOC(C)C)c2N2CCC(N)CC2)c1               pEC50        > 8.00
 9  Nc1ncc(-c2cc(F)cc(Cl)c2)c(N2CCC(N)CC2)c1-c1nc2cc(F)cc(F)c2[nH]1               pEC50        > 8.00
10  CNc1ncc(-c2cc(C)cc(F)c2)c(N2CCC(N)CC2)c1-c1nc2cc(F)cc(F)c2[nH]1               pEC50        > 8.00
11  CON=Cc1cccc2[nH]c(-c3c(N)ncc(-c4cc(C)cc(F)c4)c3N3CCC(N)CC3)nc12               pEC50        > 8.00
12  N#Cc1cc(F)cc(-c2cnc(N)c(-c3nc4cc(Cl)ccc4[nH]3)c2N2CCC(N)CC2)c1               pEC50        > 8.00
13  Cc1cc(F)cc(-c2cnc(N)c(-c3nc4cc(F)ccc4[nH]3)c2N2CCC(N)CC2)c1               pEC50        > 8.00
14  Cc1cc(F)cc(-c2cnc(N)c(-c3nc4cc(F)c(F)cc4n3C)c2N2CCC(N)CC2)c1               pEC50        > 8.00
15  Cc1cc(Cl)cc(-c2cnc(N)c(C=NOC(C)C)c2N2CCC(N)CC2)c1               pEC50        > 8.00
